Just for reference, patent US8449898B2 is where these values come from.

tested on: Phytophthora infestans (the causal agent of tomato late blight); experiment: whole plant or invertebrate; type: in vivo; conditions: Phytophthora infestans, read-out: TLB Obsd, component (b) alone, 2 ppm
pest or weed control at 2 ppm of 30% or higher: Yes. Under 30%: No.

Below, 5 compounds whose answers are already recorded.
1) CON=C(C(=O)OC)c1ccccc1CON=C(C)c1cccc(C(F)(F)F)c1 [trifloxystrobin]	No
2) CSC1=N[C@@](C)(c2ccccc2)C(=O)N1Nc1ccccc1 [fenamidone]	Yes
3) C[C@@]1(c2ccc(Oc3ccccc3)cc2)OC(=O)N(Nc2ccccc2)C1=O (racemic) [famoxadone]	Yes
4) O=C(Nc1ccccc1-c1ccc(Cl)cc1)c1cccnc1Cl [boscalid]	No
5) Cc1ccc(-c2c(Cl)nc(C#N)n2S(=O)(=O)N(C)C)cc1 [cyazofamid]	Yes

// query Confirm if pest or weed control at 2 ppm reported for the compound CO/N=C(/C(=O)OC)c1ccccc1COc1ccccc1C [kresoxim-methyl] is 30% or above.
// result Yes

// query Confirm if pest or weed control at 2 ppm reported for the compound CC(C)CC(C)c1sccc1NC(=O)c1cn(C)nc1C(F)(F)F (centres unmarked) [penthiopyrad] is 30% or above.
// result No

// query Confirm if pest or weed control at 2 ppm reported for the compound Fc1ccc(Oc2ccnc3cc(Cl)cc(Cl)c23)cc1 [quinoxyfen] is 30% or above.
// result No

###

PROPERTY: melting point

For orientation, consider the following solved cases.
1) COc1ccc(C2CC(c3csc(C4CCN(C(=O)Cn5nc(C(F)(F)F)cc5C)CC4)n3)=NO2)cc1 (centres unmarked)	119 to 124 °C
2) O=C(Cn1nc(C(F)(F)F)cc1C(F)(F)F)N1CCC(c2nc(C3=NOC(c4ccccc4)C3)cs2)CC1 (centres unmarked)	130 to 133 °C
3) CCc1cc(C(F)(F)F)nn1CC(=O)N1CCC(c2nc(C3=NOC(c4ccccc4)C3)cs2)CC1 (centres unmarked)	128 to 133 °C

Sure, the documented melting point for Cc1cc(C(F)(F)F)nn1CC(=O)N1CCC(c2nc(C3=NOC4c5ccccc5CCC34)cs2)CC1 (centres unmarked) is 162 to 165 °C

Sure, the documented melting point for Cc1cc(C(F)(F)F)nn1CC(=O)N1CCC(c2nc(C3=NOC(C)(c4ccccc4)C3)cs2)CC1 (centres unmarked) is 97 to 100 °C

###

Listed below: pest or weed control at 0.08 µg/mL values for each entry.
tested on: Pseudoperonospora cubensis (the causal agent of cucumber downy mildew); experiment: Test B: cucumber downy mildew, preventive spray on cucumber seedlings; assay type: in vivo; conditions: Pseudoperonospora cubensis, component (b) alone 0.08 ppm (Compound 1 0 ppm); read-out: CDM Obsd
Respond with the figure and its unit, in that order.

For orientation, consider the following solved cases.
1) COc1ccc(C(=CC(=O)N2CCOCC2)c2ccc(Cl)cc2)cc1OC	26%
2) COC(=O)N(OC)c1ccccc1COc1ccn(-c2ccc(Cl)cc2)n1	47%
3) CSC1=N[C@@](C)(c2ccccc2)C(=O)N1Nc1ccccc1	65%

Sure, the documented pest or weed control at 0.08 µg/mL for Cc1ccc(-c2c(Cl)nc(C#N)n2S(=O)(=O)N(C)C)cc1 is 100%

###

test system: Pseudoperonospora cubensis (the causal agent of cucumber downy mildew); test: Test B: cucumber downy mildew, preventive spray on cucumber seedlings; type: in vivo; settings: Pseudoperonospora cubensis, component (b) alone, 10 ppm; read-out: CDM Obsd (observed effect, cucumber downy mildew)
PROPERTY: pest or weed control at 10 ppm
Respond with the figure and its unit, in that order.

1) COC(=O)N(OC)c1ccccc1COc1ccn(-c2ccc(Cl)cc2)n1	100%
2) O=C1c2ccccc2C(=O)N1SC(Cl)(Cl)Cl	44%
3) CCNC(=O)NC(=O)/C(C#N)=N/OC	0%

Sure, the documented pest or weed control at 10 ppm for N#Cc1c(Cl)c(Cl)c(Cl)c(C#N)c1Cl is 70%

Sure, the documented pest or weed control at 10 ppm for CCCOC(=O)NCCCN(C)C is 46%

Sure, the documented pest or weed control at 10 ppm for COc1ccc(C(=CC(=O)N2CCOCC2)c2ccc(Cl)cc2)cc1OC is 100%

Sure, the documented pest or weed control at 10 ppm for O=[N+]([O-])c1cc(C(F)(F)F)c(Cl)c([N+](=O)[O-])c1Nc1ncc(C(F)(F)F)cc1Cl is 98%
